- SYSTEM_NAME: BChE (Homo sapiens, UniProt P06276)
- Sequence (P06276 29-602): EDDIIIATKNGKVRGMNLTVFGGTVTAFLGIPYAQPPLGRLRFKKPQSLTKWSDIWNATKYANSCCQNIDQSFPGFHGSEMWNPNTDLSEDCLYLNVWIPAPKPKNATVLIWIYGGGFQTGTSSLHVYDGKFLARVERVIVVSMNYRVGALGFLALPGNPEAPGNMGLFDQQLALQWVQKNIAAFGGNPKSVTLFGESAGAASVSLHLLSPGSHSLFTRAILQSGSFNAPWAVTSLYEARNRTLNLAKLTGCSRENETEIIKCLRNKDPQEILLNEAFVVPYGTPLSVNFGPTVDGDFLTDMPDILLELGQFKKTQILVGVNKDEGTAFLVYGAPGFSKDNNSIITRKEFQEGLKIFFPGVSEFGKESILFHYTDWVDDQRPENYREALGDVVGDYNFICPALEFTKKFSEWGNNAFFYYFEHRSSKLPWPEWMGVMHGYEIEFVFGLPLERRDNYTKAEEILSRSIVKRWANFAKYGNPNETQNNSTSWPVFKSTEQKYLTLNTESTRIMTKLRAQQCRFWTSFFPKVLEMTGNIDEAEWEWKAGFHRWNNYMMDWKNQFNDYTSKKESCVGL
- PROTOCOL_DESCRIPTION: biochemical
- DETAILS: in vitro, triplicate; read-out: BChE IC50 ± SEM
# pIC50 listing for each entry below
Notebook: values listed as pIC50 are -log10 of the concentration (mol/L).

// worked examples, pIC50 included
>>> print(df.to_string())
                                   compound                          system_name  reported_value
0  COc1cc(-c2nnc3[nH]ccn23)ccc1N1C(=O)CSC1c1ccc(F)cc1F (stereo not drawn)  BChE (Homo sapiens, UniProt P06276)            5.07
1  COc1cc(-c2nnc3[nH]ccn23)ccc1N1C(=O)CSC1c1ccc(C(F)(F)F)cc1 (stereo not drawn)  BChE (Homo sapiens, UniProt P06276)            5.15

Continue with the compound presented below.
Exercise: Look up pIC50 for this compound: COc1cc(-c2nnc3[nH]ccn23)ccc1N1C(=O)CSC1c1ccc(F)cc1O (stereo not drawn)
Solution: 5.07

---

- SYSTEM_NAME: AChE (Homo sapiens, UniProt P22303)
- Sequence (P22303 32-614): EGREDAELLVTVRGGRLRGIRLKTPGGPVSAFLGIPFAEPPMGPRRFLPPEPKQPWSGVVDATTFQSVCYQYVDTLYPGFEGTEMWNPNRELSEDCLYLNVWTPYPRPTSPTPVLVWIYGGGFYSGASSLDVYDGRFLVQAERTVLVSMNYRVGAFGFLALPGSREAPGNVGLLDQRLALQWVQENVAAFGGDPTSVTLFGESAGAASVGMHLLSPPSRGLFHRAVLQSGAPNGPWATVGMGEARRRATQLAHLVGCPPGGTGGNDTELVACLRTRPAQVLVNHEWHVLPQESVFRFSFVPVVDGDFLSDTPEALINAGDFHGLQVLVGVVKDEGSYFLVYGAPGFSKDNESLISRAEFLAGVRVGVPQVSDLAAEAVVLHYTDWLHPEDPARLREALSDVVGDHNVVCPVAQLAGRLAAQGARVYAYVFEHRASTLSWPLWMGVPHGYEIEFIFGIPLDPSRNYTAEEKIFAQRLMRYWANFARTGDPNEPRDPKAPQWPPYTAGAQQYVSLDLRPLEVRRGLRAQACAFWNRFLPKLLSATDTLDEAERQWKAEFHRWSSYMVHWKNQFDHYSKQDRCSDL
- PROTOCOL_DESCRIPTION: biochemical
- DETAILS: in vitro, triplicate; read-out: AchE IC50 ± SEM
# pIC50 listing for each entry below
Notebook: values listed as pIC50 are -log10 of the concentration (mol/L).

// worked examples, pIC50 included
>>> print(df.to_string())
                                   compound  reported_value
0  COc1cc(-c2nnc3[nH]ccn23)ccc1N1C(=O)CSC1c1ccc(F)cc1F (stereo not drawn)            5.09
1  COc1cc(-c2nnc3[nH]ccn23)ccc1N1C(=O)CSC1c1ccc(C(F)(F)F)cc1 (stereo not drawn)            5.17

Continue with the compound presented below.
Exercise: Field: pIC50 (AChE (Homo sapiens, UniProt P22303)). Entry: COc1cc(-c2nnc3[nH]ccn23)ccc1N1C(=O)CSC1c1ccc(F)cc1O (stereo not drawn)
Solution: 5.08
